Target: T1, recombinant purified cyno IL-12 p70 (cynomolgus monkey)
T1 chain 1: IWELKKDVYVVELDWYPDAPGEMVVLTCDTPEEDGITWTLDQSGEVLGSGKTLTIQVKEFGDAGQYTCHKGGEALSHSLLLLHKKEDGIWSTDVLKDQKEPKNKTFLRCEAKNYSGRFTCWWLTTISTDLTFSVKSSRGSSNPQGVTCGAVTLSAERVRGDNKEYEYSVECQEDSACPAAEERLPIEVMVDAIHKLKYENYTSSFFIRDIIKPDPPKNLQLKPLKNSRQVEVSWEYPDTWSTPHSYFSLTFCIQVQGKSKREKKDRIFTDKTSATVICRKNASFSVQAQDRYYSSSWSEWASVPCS
T1 chain 2: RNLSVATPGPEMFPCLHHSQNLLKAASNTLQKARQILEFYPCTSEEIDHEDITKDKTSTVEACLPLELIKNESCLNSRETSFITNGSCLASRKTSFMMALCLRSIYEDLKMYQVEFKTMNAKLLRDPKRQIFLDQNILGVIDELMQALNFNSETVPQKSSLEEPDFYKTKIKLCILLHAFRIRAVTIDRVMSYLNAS
Test: cell-based or functional assay
assay.metric: Average IC50 (nM) Cyno IL-12, PHA blast IFN-γ assay
Answers are plain numbers, in nM.

binder	result.units	measured.result
murine anti-human IL-12p40 monoclonal antibody 8E1 (antibody, V domains shown, Murine mAb; also called biotinylated 8E1) VH: EVKLVESGGGLVQPGGSRKLSCAASGFTFSDYGMVWVRQAPGKGLEWVASISSGSSNIYYADTVKGRFTISRDDPNNTLFLQMRSLRSEDTAMYYCARNPYWGQGTTLTVSS VL: DIVMTQSQKFMSTSVGDRVSVTCKASQNVGTNVAWYQQKPGQSPKGLIYSASHRYSGVPDRFAGSGSGTDFTLTISNVQSEDLAEYFCQQYNSYPLTFGGGTKLELKR	nM	0.18

q: GET /values?readout=Average IC50 (nM) Cyno IL-12, PHA blast IFN-γ assay&item= murine anti-human IL-12p40 monoclonal antibody 4B4 (antibody, V domains shown, Murine mAb) VH: QVTLKESGPGILKPSQTLSLTCSLSGFSLSTSGMGVSWIRQPSGKGLEWLAHIWWDGDSYSNPSLRSRLTISRDTSRNQVFLRIATVDTADTATYYCARRTRVNYAMDYWGQGTSVTVSS VL: SVVMTQTPKFLLVSAGDRVTMTCKASQSVSNDVAWFQQKPGQSPKLLIYYASNRYTGVPDRFTGSGYGTDFTFTISTVQAEDLAVYFCQQDYNSPWTFGGGTKLEIKR
a: 0.028

All values here come from patent US20140178332A1.
